Molecular target: HNE under oxidizing conditions (oxidized HNE) (Homo sapiens, UniProt P08246)
Sequence (P08246 30-247 limits assumed): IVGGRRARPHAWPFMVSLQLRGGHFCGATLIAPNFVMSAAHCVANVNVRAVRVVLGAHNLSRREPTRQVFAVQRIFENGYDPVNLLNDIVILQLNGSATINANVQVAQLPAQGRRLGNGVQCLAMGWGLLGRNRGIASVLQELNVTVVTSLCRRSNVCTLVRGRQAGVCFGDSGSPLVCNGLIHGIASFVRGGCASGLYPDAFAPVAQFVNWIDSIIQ
metric name: IC50

query smiles	value measured
Cc1c(-c2ccnn2C)cc(C(=O)NCc2ccc(S(C)(=O)=O)cn2)c(=O)n1-c1cccc(C(F)(F)F)c1	4 µM
